Hey, just so you know, these numbers are from patent US20260174875A1.

target-or-test-system: human GLP-1 receptor (hGLP-1R) (Homo sapiens)
Construct: expressed in transfected cells
Sequence (P43220 24-463): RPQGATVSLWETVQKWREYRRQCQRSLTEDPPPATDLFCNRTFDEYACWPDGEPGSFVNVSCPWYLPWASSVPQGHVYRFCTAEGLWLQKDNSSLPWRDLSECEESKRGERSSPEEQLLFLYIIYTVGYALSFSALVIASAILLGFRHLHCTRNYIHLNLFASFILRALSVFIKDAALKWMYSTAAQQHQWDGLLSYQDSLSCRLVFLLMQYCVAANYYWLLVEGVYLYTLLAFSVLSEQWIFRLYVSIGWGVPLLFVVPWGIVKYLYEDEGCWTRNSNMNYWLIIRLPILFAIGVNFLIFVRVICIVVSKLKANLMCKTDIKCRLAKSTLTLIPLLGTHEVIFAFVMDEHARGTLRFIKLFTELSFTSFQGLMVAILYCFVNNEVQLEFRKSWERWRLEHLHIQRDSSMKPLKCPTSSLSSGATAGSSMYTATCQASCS
method-notes: GLP-1 receptor assay, method A (CRE-luciferase reporter, BHK cells)
Assay type: cell-based
condition-notes: hGLP-1R Potency, 1% HSA, EC50, method A, in the presence of 1% HSA
Numbered stars: 1 amine (or outer) side, 2 acyl side, 3 side chain; on linkers, the order of the positions; unused ones are H or OH. Square brackets hold non-standard residues; d marks the D form. Side chains are listed from the residue outwards. * marks the point of attachment. C18 diacid = O=C(O)CCCCCCCCCCCCCCCCC(=O)*; C16 diacid = O=C(O)CCCCCCCCCCCCCCC(=O)*; γGlu = O=C(O)[C@H](CCC(=O)[*:2])N[*:1]; AEEA = NCCOCCOCC(=O)O; Aib = CC(C)(N)C(=O)O
quantity-kind: pEC50
Schema: pEC50 number; meaning minus log10 of the concentration expressed in molar units.

Prompt: Which measured pEC50 value corresponds to H[Aib]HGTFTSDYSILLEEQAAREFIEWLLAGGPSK([AEEA-AEEA-γGlu-C16 diacid])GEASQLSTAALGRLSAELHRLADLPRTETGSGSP-NH2 [Compound 62] ?
Response: 10.94

Prompt: Which measured pEC50 value corresponds to H[Aib]HGTFTSDYSILLEEQAAREFIEWLLAGGPSSGAGQAPGQAPGASHLSTAQTQRLSAELHRLATLPK([AEEA-AEEA-γGlu-C18 diacid])TETGSGSP-NH2 [Compound 92] ?
Response: 10.87

Prompt: Which measured pEC50 value corresponds to Y[Aib]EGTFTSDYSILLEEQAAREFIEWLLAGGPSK([AEEA-AEEA-γGlu-C16 diacid])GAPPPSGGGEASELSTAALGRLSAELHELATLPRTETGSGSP-NH2 [compound 10] ?
Response: 9.61
